Let's look at some molecules and their measured boiling point.
observed.property: boiling point (°C)

1) c1ccc(-n2cccc2)cc1
234
2) c1ccc2sncc2c1
220
3) CC(C)(C)c1cccc(O)c1
240
4) O=[N+]([O-])c1c(F)c(F)c(F)c(F)c1F
160
5) c1ccc2occc2c1
174
6) Cc1c(Cl)cc(Cl)c(O)c1Cl
265
7) CCCCCN(CCCCC)CCCCC
242
8) CCCCN(CCO)CCCC
229
9) O=C(O)CCOc1ccccc1
240
10) FC(Cl)C(F)(F)C(F)(F)Cl (configuration not stated)
56.1
11) O=C(Nc1ccccc1)Nc1ccccc1
262
12) C=COC=C
28.3
13) CCC(C)(CC)C(C)C
145
14) CC1OCCO1
81.5
15) CC(C)=CC(=O)C=C(C)C
198
16) Brc1sc(Br)c(Br)c1Br
326
17) CCC(Cl)[N+](=O)[O-] (configuration not stated)
142

====

Let's look at some compounds and their measured log10 Henry constant (atm·m³/mol).
observed.property: log10 Henry constant (atm·m³/mol)

1. OCCCc1ccccc1
-6.69
2. Clc1ccc(-c2c(Cl)c(Cl)cc(Cl)c2Cl)c(Cl)c1
-4.29
3. CC1=CCC2CC1C2(C)C (stereo unspecified)
-0.873
4. c1ccc2c(c1)-c1cccc3c1c-2cc1ccccc13
-6.18
5. Clc1cc(Cl)c(-c2cccc(Cl)c2Cl)cc1Cl
-4.13
6. CCCSCCC
-2.49
7. ClCCCCCl
-3.31
8. Clc1ccc(-c2cccc(Cl)c2Cl)c(Cl)c1
-3.85
9. CCCCOCCOC(C)=O
-5.26
10. c1cc2c3c(cccc3c1)CC2
-3.74
11. C1CCNC1
-5.62
12. Cl[C@H]1[C@H](Cl)[C@@H](Cl)[C@@H](Cl)[C@H](Cl)[C@H]1Cl (racemic)
-5.5
13. CCCCCCCCC=O
-3.13
14. O=[N+]([O-])c1ccc(Cl)cc1
-5.31
15. Cc1ccc([N+](=O)[O-])cc1
-5.25
16. CCc1ccccn1
-4.78
17. Clc1ccc(Cl)c(-c2ccccc2Cl)c1
-3.6
18. CC(F)F
-1.69
19. Clc1c(Cl)c(Cl)c(Cl)c(Cl)c1Cl
-2.77
20. ClC1=C(Cl)C2(Cl)C3C(Cl)C(Cl)CC3C1(Cl)C2(Cl)Cl (stereo unspecified)
-3.53
21. CCCCCCN
-4.57
22. O=C(Nc1ccccc1)N(Cc1ccc(Cl)cc1)C1CCCC1
-11.3
23. CC1=CCC(=C(C)C)CC1
-1.58
24. Fc1ccccc1
-2.2
25. COc1ccc(C(O)(c2cncnc2)C2CC2)cc1 (stereo unspecified)
-10.8
26. Cl/C=C\Cl
-2.17
27. OCC(F)(F)C(F)F
-5.2
28. C[Si](C)(C)O[Si](C)(C)O[Si](C)(C)O[Si](C)(C)C
1.23
29. ClC1=C(Cl)C2(Cl)C3C4OC4C(Cl)C3C1(Cl)C2(Cl)Cl (stereo unspecified)
-4.68
30. CC(=O)O
-7
31. C1CCOC1
-4.15
32. CCC(C)c1ccc(O)c([N+](=O)[O-])c1 (stereo unspecified)
-4.02
33. CC(=O)C=O
-6.57
34. CCc1ccccc1
-2.1
35. COc1ccc(N)cc1
-7.18
36. CCCCCCCCCC=O
-2.74
37. Clc1ccccc1-c1ccccc1Cl
-3.64
38. CC(C)CO[N+](=O)[O-]
-2.65
39. CC(C)OCCO
-6.04
40. OCC(F)(F)F
-4.76
41. Clc1ccc(-c2cccc(Cl)c2Cl)cc1
-3.85
42. Cc1cc(O)ccc1[N+](=O)[O-]
-7.79
43. CCO
-5.3
44. CNC
-4.75
45. Nc1cccc([N+](=O)[O-])c1
-8.1
46. Cc1ccc(O)c([N+](=O)[O-])c1
-4.83
47. OCCc1ccccc1
-6.59
48. CCCOCCN(C(=O)CCl)c1c(CC)cccc1CC
-8.1
49. c1ccc2cc3ccccc3cc2c1
-4.25
50. CCC(=O)O
-6.35
51. CC#N
-4.46
52. O=Cc1ccncc1
-6.75
53. Clc1ccc(Cl)c(-c2ccccc2)c1Cl
-3.66
54. Clc1ccc(Cl)c(Cl)c1
-2.85
55. CSC
-2.79
56. CN1CSC(=S)N(C)C1
-9.58
57. COCOC
-3.76
58. CC1CCCCC1
-0.367
59. C=CCC
-0.633
60. C1CCCC1
-0.818
61. Cc1cccc(C)c1
-2.14
62. Cc1cccs1
-2.62
63. Cc1ccncc1
-5.22
64. O=[N+]([O-])c1ccc(O)c([N+](=O)[O-])c1
-7.07
65. ClCCCCCCl
-3.25
66. C=O
-6.47
67. ClCCBr
-3.04
68. CCCCC(=O)O
-6.33
69. CCc1cccc2ccccc12
-3.16
70. C1=Cc2cccc3cccc1c23
-3.94
71. Nc1ccc([N+](=O)[O-])cc1
-8.9

====

observed.property: boiling point (°C)

1. O=C=Nc1ccccc1
163
2. FC(Cl)(Br)Br
80.3
3. C=CCC(C)CCC (configuration not stated)
113
4. COc1c(F)c(F)cc(F)c1F
138
5. CC(C)C(=O)c1ccccc1
220
6. COc1ccc(N)c(C)c1
248
7. Cc1cccc(C(C)C)c1
175
8. CC1(C)COC(C)(C)C1
121
9. CC(F)F
-24.9
10. CC12CCC(CC1=O)C2(C)C (configuration not stated)
206
11. OCCCc1ccccn1
260
12. CSC(=O)c1cccc2nnsc12
267
13. CC(C)OC(=O)c1ccco1
198
14. BrCCC1CCCCC1
212
15. c1cncc([C@@H]2CCCN2)c1
270
16. O=C(O)c1cc2ccccc2o1
312
17. CCCCCCCCCCCCCCCBr
322
18. O=C1Cc2ccccc2O1
249
19. O=[N+]([O-])c1cccc(Cl)c1
236
20. OCCN1CCOCC1
227
21. c1ccc2[nH]ncc2c1
269
22. C1=CC2CCC1C2
96
23. Cc1ccc2c(C)ccc(C(C)C)c2c1
294
24. CC[Si](Cl)(CC)CC
144
25. CCCCN
78
26. CC(C)CCCC(C)CCCC(C)CCCCC(C)CCCC(C)CCCC(C)C (configuration not stated)
350
27. Cc1ccc(C(=O)O)c(C)c1
268
28. Cc1cc(Cl)ccc1OCC(=O)O
287
29. FC(Cl)(Cl)C(F)(Cl)Cl
93
30. CCNC=O
198
31. C#CCCCC#C
112
32. C=CCCCCCCC
147
33. CCCC(=O)OC(C)C
130
34. O=C(O)Cc1ccccc1O
240
35. CCOC(=O)C=C(C)C(=O)OCC
228
36. COc1ccccc1CN
229
37. CC1(C)C2CCC(C=O)C1C2 (configuration not stated)
220

====

Let's look at some molecules and their measured boiling point.
observed.property: boiling point (°C)

1. CCC(Br)(Br)CBr
214
2. C=C(C)C(OC(C)=O)OC(C)=O
191
3. FC(F)C(F)F
-19.9
4. CC1=CC=CC1
72.8
5. O=C(O)C(Cl)Br (racemic)
215
6. FC(Cl)C(F)Cl (stereo not drawn)
46.8
7. CCCCc1ccccc1O
235
8. CCCCC1CCCCC1
181
9. COC(=O)CCC(C)=O
196
10. CCC(C)(O)CC
122
11. Cc1ccc2ccccc2c1
241
12. CC(Cl)C(=O)CCl (stereo not drawn)
166
13. OC1CCCC1C1CCCC1 (stereo not drawn)
236
14. NC(=O)C(Cl)Cl
234
15. CCCCCCCCN(CCCCCCCC)CCCCCCCC
366
16. C1CCC2OC2C1 (stereo not drawn)
132
17. C=CCOC=O
83.6
18. C=C=C(C)CC
70

====

Let's look at some compounds and their measured log10 Koc (L/kg).
observed.property: log10 Koc (L/kg)

1) Clc1ccc(Cl)c(Cl)c1
3.1
2) CN(C)c1ccc(N=Nc2ccccc2)cc1
3.87
3) CCCCCOC(=O)Nc1ccccc1
2.61
4) O=C(Nc1ccccc1)c1ccccc1I
2.82
5) CC1(C)C(C=C(Cl)Cl)C1C(=O)OC(C#N)c1cccc(Oc2ccccc2)c1 (configuration not stated)
5
6) CCCCOC(=O)c1ccccc1C(=O)OCc1ccccc1
3.72
7) c1ccc(N(c2ccccc2)c2ccccc2)cc1
2.26
8) COC(=O)NS(=O)(=O)c1ccc(N)cc1
1.6
9) C1=Cc2cccc3cccc1c23
3.75
10) CCN(Cc1c(F)cccc1Cl)c1c([N+](=O)[O-])cc(C(F)(F)F)cc1[N+](=O)[O-]
4
11) Clc1cc(Cl)c(Cl)c(Cl)c1
3.2
12) Oc1cc(Cl)c(Cl)cc1Cl
3.36
13) NC(=O)Nc1ccc(Br)cc1
2.06
14) CCOP(=O)(OCC)OC(=CCl)c1ccc(Cl)cc1Cl
2.47
15) CCOC(=O)C(C)Oc1ccc(Oc2nc3ccc(Cl)cc3o2)cc1 (configuration not stated)
3.98
16) CN(C)c1ccc(C(=O)c2ccc(N(C)C)cc2)cc1
2.21
17) Clc1ccc(Cl)c(-c2ccc(Cl)c(Cl)c2)c1
4.86
18) O=C1c2ccccc2C(=O)N1SC(Cl)(Cl)Cl
3.27
19) c1ccc2c(c1)ccc1c3ccc4ccccc4c3[nH]c21
6.02
20) Cc1occc1C(=O)Nc1ccccc1
2.48
21) CCCN(CCC)c1c([N+](=O)[O-])cc(S(C)(=O)=O)cc1[N+](=O)[O-]
2.92
22) CCCCC(=O)OCC
1.97
23) Clc1cccc(C(Cl)(Cl)Cl)n1
2.62
24) CCC(CC)Nc1c([N+](=O)[O-])cc(C)c(C)c1[N+](=O)[O-]
3.7
25) Oc1c(Cl)cc(Cl)cc1Cl
3.03
26) COc1cc(OC)nc(Sc2cccc(Cl)c2C(=O)[O][Na])n1
1.15
27) CCOC(=O)COC(=O)c1ccccc1C(=O)OCC
2.54
